Method summary: yeast display, Sf9 membrane polyspecificity reagent, FACS + sequencing; frameworks hold sequencing errors

Query sequence	polyreactivity (PSR sort gate)
QVQLVESGGGLVQAGGSLRLSCAASGSIFYRNAMGWYRQAPGKERELVAAISSDGSTNYADSVKGRFTISRDNAKNTVYLQMNSLKPEDTAVYFCAAPWTQILDYWGQGTQVTVSS	low polyreactivity
QVQLVESGGGLVQAGGSLRLSCAASGSIFLSNAMGWYRQSPGKERELVAAISSSGGSTYYADSVKGRFTISRDNAKNTVYLQMNSLKPEDTAVYYCAATGYGFRGRFDYWGQGTQVTVSS	low polyreactivity
QVQLVESGGGLVQAGGSLRLSCAASGSIFDHYVMGWYRQSPGKERELVAAITSGDRTNYADSVKGRFTISRDNAKNTVYLQMNSLKPEDTAVYYCNADYQSYFYYTTWYYEYDYWGQGTQVTVSS	low polyreactivity
QVQLVESGGGLVQAGGSLRLSCAASGRIFTRSAMGWYRQAPGKERELVAVITRSGGSTYYADSVKGRFTISRDNAKKTVYLQMNSLKPEDTAVYYCAAKYYGEMYYWGQGTQVTVSS	low polyreactivity
